Target: TxtE-BM3R (UniProt C9ZDC6+P14779)
Construct: P450BM3 (CYP102A1) reductase domain BM3R with its Domcut-predicted native linker, from B. megaterium ATCC 14581 (GenBank J04832.1); made in house; host or cells: E. coli BL21 (DE3)-GOLD
Test: Substrate binding affinity by UV-Vis spectral titration, TxtE-BM3R
Design: species or system S. scabies 87.22 / B. megaterium ATCC 14581
Conditions: […] enzyme, 25 mM Tris-HCl pH 8.0; for 4-F-DL-tryptophan total concentration of the racemic mixture used

molecule | readingUnit | Kd
NC(Cc1c[nH]c2cccc(F)c12)C(=O)O (racemic) | µM | 189
N[C@@H](Cc1c[nH]c2ccc(F)cc12)C(=O)O | µM | 84.2
